System: RPMI-8226 leukemia
Assay: NCI tumour cell line growth inhibition, 48 h
MEASURED PARAMETER: TGI

INSERT INTO measurements (compound, subject_of_test, measured_parameter, result) VALUES
  ('CCC(C)N1CN(c2ccccc2)C2(CCN(CCCC3(c4ccc(F)cc4)OCCO3)CC2)C1=O (configuration not stated)', 'RPMI-8226 leukemia', 'TGI', '4 µM'),
  ('Cc1ccc(C(=O)N/N=C(\N=Nc2ccccc2C(=O)O)c2ccc(N(C)C)cc2)cc1', 'RPMI-8226 leukemia', 'TGI', '> 100 µM'),
  ('O=c1[nH]c2ccc(C(F)(F)F)cc2nc1C(F)(F)F', 'RPMI-8226 leukemia', 'TGI', '> 100 µM'),
  ('CCCC(=O)OC(OC(=O)CCC)c1ccc([N+](=O)[O-])o1', 'RPMI-8226 leukemia', 'TGI', '49.7 µM'),
  ('Cn1cc(-c2csc(-c3cn(C(=O)OC(C)(C)C)c4ccccc34)n2)c2cccnc21', 'RPMI-8226 leukemia', 'TGI', '36.7 µM'),
  ('CSc1c(C)n([O-])c2cc(Cl)c(Cl)cc2[n+]1=O', 'RPMI-8226 leukemia', 'TGI', '34.9 µM'),
  ('O=C(O)C1CSC2(CCCN(Cc3ccccc3)C2)N1 (configuration not stated)', 'RPMI-8226 leukemia', 'TGI', '> 34.4 µM'),
  ('COC(=O)C(C)Oc1ccc(O)cc1 (configuration not stated)', 'RPMI-8226 leukemia', 'TGI', '> 100 µM'),
  ('CCCCCCCCCCOc1ccc(N=Nc2nnc(-c3ccc(OCCCCC)cc3)s2)cc1', 'RPMI-8226 leukemia', 'TGI', '> 100 µM'),
  ('CN1CCN(c2nc3cc(F)ccc3n3cccc23)CC1', 'RPMI-8226 leukemia', 'TGI', '> 100 µM'),
  ('NNS(=O)(=O)c1ccc(/C=C2\NC(=O)NC2=O)cc1', 'RPMI-8226 leukemia', 'TGI', '> 100 µM'),
  ('NC1=Nc2ccccc2Sc2ccccc21', 'RPMI-8226 leukemia', 'TGI', '> 100 µM'),
  ('CN(C)C(=S)/N=c1\ss/c(=N\S(=O)(=O)c2ccccc2)n1C', 'RPMI-8226 leukemia', 'TGI', '> 100 µM'),
  ('Cn1c2ccccc2c2c3c(c4c5ccccc5n(C)c4c21)C(=O)N(c1ccccc1)C3=O', 'RPMI-8226 leukemia', 'TGI', '> 100 µM'),
  ('O=C(N/N=C/c1ccc(N(CCCl)CCCl)cc1)c1ccc(C(=O)N/N=C/c2ccc(N(CCCl)CCCl)cc2)cc1', 'RPMI-8226 leukemia', 'TGI', '15.1 µM'),
  ('COc1ccc(F)cc1-c1ccnc2[nH]c(C3=CCN(C4CCC(CC(=O)O)CC4)CC3)cc12 (configuration not stated)', 'RPMI-8226 leukemia', 'TGI', '0.786 µM'),
  ('CCOC(=O)CCC(NC(=O)c1ccc(Nc2nc3ccccc3nc2C(=O)OCC)s1)C(=O)OCC (configuration not stated)', 'RPMI-8226 leukemia', 'TGI', '> 100 µM'),
  ('CSc1nc2ccc(C)cc2cc1/C=C1/C=C(c2ccccc2)NC1=O', 'RPMI-8226 leukemia', 'TGI', '> 100 µM'),
  ('Cc1ccc([N+]2=NC(c3ccccc3)=NN(c3ccccc3)C2)cc1', 'RPMI-8226 leukemia', 'TGI', '> 100 µM'),
  ('Cc1oc2nc(N(C)C)n3cnnc3c2c1C', 'RPMI-8226 leukemia', 'TGI', '> 100 µM'),
  ('ClC1=C(Cl)C2OC3C=CCC3OC2C(Cl)=C1Cl (configuration not stated)', 'RPMI-8226 leukemia', 'TGI', '66.4 µM'),
  ('O=C1C(OC(=O)c2ccccc2)=C(c2ccc(O)cc2)C(=O)C(OC(=O)c2ccccc2)=C1c1ccc(O)cc1', 'RPMI-8226 leukemia', 'TGI', '> 100 µM'),
  ('COC(=O)C(CNC(=O)/C=C/c1ccc(OC(C)=O)c(OC(C)=O)c1)NC(=O)/C=C/c1ccc(OC(C)=O)c(OC(C)=O)c1 (configuration not stated)', 'RPMI-8226 leukemia', 'TGI', '> 100 µM'),
  ('COC(=O)C(/C(=N\O)C(=O)Nc1ccc(Br)cc1)c1nc2ccccc2[nH]c1=O (configuration not stated)', 'RPMI-8226 leukemia', 'TGI', '61.6 µM'),
  ('Cc1nccn1S(=O)(=O)c1ccc(Cl)cc1', 'RPMI-8226 leukemia', 'TGI', '> 100 µM'),
  ('Cc1c(C2CCSc3ccccc3N2)sc2ccccc12 (configuration not stated)', 'RPMI-8226 leukemia', 'TGI', '> 100 µM'),
  ('CC1/C(=N/O)CC(c2ccccc2)N(N=O)C1c1ccccc1 (configuration not stated)', 'RPMI-8226 leukemia', 'TGI', '> 100 µM'),
  ('COC(=O)/C=C\C(C#N)(C#N)N=Cc1ccc(Br)cc1', 'RPMI-8226 leukemia', 'TGI', '5.74 µM'),
  ('COC(=O)c1cc(C)[nH]c2c(C)cc3nc4ccccc4c3c12', 'RPMI-8226 leukemia', 'TGI', '46.9 µM'),
  ('Cc1ccc2c(=O)cc(-c3cccc(F)c3)[nH]c2n1', 'RPMI-8226 leukemia', 'TGI', '> 19.8 µM'),
  ('Nc1ccc(C(=O)O)cc1', 'RPMI-8226 leukemia', 'TGI', '> 100 µM'),
  ('O=C1C(=Cc2ccc(F)cc2)C(=O)c2ccccc21', 'RPMI-8226 leukemia', 'TGI', '> 100 µM'),
  ('Nc1ccn(CC(O)c2cc3ccccc3[nH]2)c(=O)n1 (configuration not stated)', 'RPMI-8226 leukemia', 'TGI', '> 100 µM'),
  ('CCCCCCCCCCCCCCCCCCNc1nc(=O)n(C2CC(OP(=O)(O)OCC3OC(n4cc(F)c(=O)[nH]c4=O)CC3O)C(CO)O2)cc1F (configuration not stated)', 'RPMI-8226 leukemia', 'TGI', '49.7 µM'),
  ('COc1ccc(/C=C(/c2ccc(OC)cc2)c2c(Cl)cc(Cl)c(/C(=C\c3ccc(OC)cc3)c3ccc(OC)cc3)c2N=Nc2ccccc2)cc1', 'RPMI-8226 leukemia', 'TGI', '> 100 µM'),
  ('CC1=CC(=O)N2C(OC[C@@H]2c2ccccc2)O1 (some centres not stated)', 'RPMI-8226 leukemia', 'TGI', '> 100 µM'),
  ('Cc1ccc(S(=O)(=O)NC(=O)NC(CC(=O)O)C(=O)O)cc1 (configuration not stated)', 'RPMI-8226 leukemia', 'TGI', '> 100 µM'),
  ('CC(C)OP(=O)(OC(C)C)/C(C#N)=C/c1c[nH]c2ccccc12', 'RPMI-8226 leukemia', 'TGI', '> 100 µM'),
  ('C=C1CC(O)C2C(=C)C(=O)OC2C2C(C)C(=O)CC12 (configuration not stated)', 'RPMI-8226 leukemia', 'TGI', '39.2 µM'),
  ('Fc1ccc2c(c1)nc1n2C(c2c(F)cccc2F)SC1 (configuration not stated)', 'RPMI-8226 leukemia', 'TGI', '> 100 µM'),
  ('Cc1cc(OCC(O)CO)ccc1Cl (configuration not stated)', 'RPMI-8226 leukemia', 'TGI', '> 100 µM'),
  ('COC(=O)[C@@H](C)C[C@H](Cc1ccccc1)NC(=O)c1csc([C@@H](C[C@H](C(C)C)N(C)C(=O)[C@@H](NC(=O)[C@H]2CCCCN2C)C(C(F)(F)F)C(F)(F)F)OC(C)=O)n1', 'RPMI-8226 leukemia', 'TGI', '3.22 µM');

Every entry's value here was drawn from PubChem BioAssay (NCI).
